B1: 2K2A (parent)
chain: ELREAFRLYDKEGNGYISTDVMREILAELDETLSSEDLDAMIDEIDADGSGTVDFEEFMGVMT

- Variants of: B1
- experiment_description: folding stability dG (cDNA display proteolysis); higher = more stable
- experimental_setup: PBS, room temperature
Let's look at some variants and their measured folding stability dG.
A number alone suffices; assume kcal/mol.

ELREAFRLYDKEGNGYISTDVMREILAELDETLSSEDLDAMIDEIDADGSGPVDFEEFMGVMT
-0.373
ELREAFRLYDKEGNGYISTDVMREILAELDETLSSEDLDAMIDEIDAEGSGTVDFEEFMGVMT
1.48
ELREAIRLYDKEGNGYISTDVMREILAELDETLSSEDLDAMIDEIDADGSGTVDFEEFMGVMT
0.623
ELREALRLYDKEGNGYISTDVMREILAELDETLSSEDLDAMIDEIDADGSGTVDFEEFMGVMT
0.489
ELREAFRLYDKEGNGYISTDVMREILCELDETLSSEDLDAMIDEIDADGSGTVDFEEFMGVMT
1.47
ELREAFRLYDKEGNGYISTDVMREILAKLDETLSSEDLDAMIDEIDADGSGTVDFEEFMGVMT
2.52
ELREAFRLYDKEGNGYISTDVMREILAELDEKLSSEDLDAMIDEIDADGSGTVDFEEFMGVMT
1.79
ELREAFRLYDKEGGGYISTDVMREILAELDETLSSEDLDAMIDEIDADGSGTVDFEEFMGVMT
0.728

Would you mind telling me what folding stability dG value was observed for ELREAFRLYDKEGNGYISTDVMREILAELDETLSSEDLDAMIDEIDWDGSGTVDFEEFMGVMT ?
1.96

GET /values?readout=folding stability dG&item= ELREAFRLYDKEGNGVISTDVMREILAELDETLSSEDLDAMIDEIDADGSGTVDFEEFMGVMT
1.1

Any idea what its folding stability dG is? The variant is ELREAFRLYDKEGNGYISTDVMREILAELDETLSSEDLDAMIDEIDADGSGCVDFEEFMGVMT
1.15

Dear colleague, I am looking for the recorded folding stability dG of the following variant: ELREAFRLYDKEGNGYISTDVMREILAELDDTLSSEDLDAMIDEIDADGSGTVDFEEFMGVMT
1.97

Tell me the measured folding stability dG of ELREAFRLYDKEGNGYISTDVMREILAELDETLSSEDLDASIDEIDADGSGTVDFEEFMGVMT , please.
0.166

Request the reported folding stability dG associated with ELREAFRLYDKEGNGYISTDVMREILAELDETLSSEDLDAMIDEIDADGSSTVDFEEFMGVMT
0.834

Requested field: folding stability dG. Item: ELREAFRLYDKEGNGYISTDVMREILAELDETLSSPDLDAMIDEIDADGSGTVDFEEFMGVMT
1.04

GET /values?readout=folding stability dG&item= ELREAFRLYDKEGNGYISTDVMREILAELDETLSSEDRDAMIDEIDADGSGTVDFEEFMGVMT
0.432

Reference source for all entries: the MegaScale stability set (Tsuboyama et al. 2023)
